# assay info: in vitro
# reported conditions: human, Caco-2
measured attribute: Papp B→A at 2 h, 10 µM (×10⁻⁶ cm/s)
Please respond with the number in ×10⁻⁶ cm/s and leave the unit unwritten.

compound: CN1CCN(CCCN2c3ccccc3Sc3ccc(C(F)(F)F)cc32)CC1
Papp B→A at 2 h, 10 µM (×10⁻⁶ cm/s): 1
//
compound: COC(=O)C1=C(C)NC(C)=C(C(=O)OCCN(C)Cc2ccccc2)C1c1cccc([N+](=O)[O-])c1 (stereo not given)
Papp B→A at 2 h, 10 µM (×10⁻⁶ cm/s): 2.6
//
compound: O=C(O)c1cc(/N=N/c2ccc(O)c(C(=O)O)c2)ccc1O
Papp B→A at 2 h, 10 µM (×10⁻⁶ cm/s): 3.1

What does the record list as Papp B→A at 2 h, 10 µM for CN(C)C(=O)C(CCN1CCC(O)(c2ccc(Cl)cc2)CC1)(c1ccccc1)c1ccccc1 [LOPERAMIDE] ?
7.6

Field entry: OC(Cn1cncn1)(Cn1cncn1)c1ccc(F)cc1F
6.7

Field entry: Cc1cn([C@H]2C[C@H](N=[N+]=[N-])[C@@H](CO)O2)c(=O)[nH]c1=O
9.6

Field entry: O=C(CCCN1CCC(O)(c2ccc(Cl)cc2)CC1)c1ccc(F)cc1
1.8

Field entry: C[C@H]1C[C@@H]2[C@H]([C@@H](O)C[C@@]3(C)[C@H]2CC[C@]3(O)C(=O)CO)[C@@]2(C)C=CC(=O)C=C12
24.6

Field entry: CC(C)(C)NC(=O)[C@@H]1CN(Cc2cccnc2)CCN1C[C@@H](O)C[C@@H](Cc1ccccc1)C(=O)N[C@H]1c2ccccc2C[C@H]1O.O
22.8

Field entry: O=c1[nH]c2ccccc2n1CCCN1CCC(n2c(=O)[nH]c3cc(Cl)ccc32)CC1
15.4
